Origin of values: patent US10208033B2

System: corn borers
Conditions: concentration 600 mg/kg
Measured Corn borer Mortality (%) by item
Provide only the numeric value, understood in %.

| smilesRecord | endpoint | assayResult |
| --- | --- | --- |
| CC(=NNC(=O)[C@@H]1Cc2c([nH]c3ccccc23)[C@H](C)N1)C(C)(C)C | Corn borer Mortality (%) | 40 |
| C[C@@H]1N[C@H](C(=O)NN=Cc2ccc3c(c2)OCCO3)Cc2c1[nH]c1ccccc21 | Corn borer Mortality (%) | 35 |
| CC(=NNC(=O)[C@@H]1Cc2c([nH]c3ccccc23)[C@H](C)N1)c1ccccc1 | Corn borer Mortality (%) | 30 |
| COc1ccccc1C=NNC(=O)[C@@H]1Cc2c([nH]c3ccccc23)[C@H](C)N1 | Corn borer Mortality (%) | 30 |

Enquiry: Item `C[C@@H]1N[C@H](C(=O)NNC(=O)C2CCCC2)Cc2c1[nH]c1ccccc21` : provide Corn borer Mortality (%)
Return: 40
